system: A431; experiment: LBPA endosome anti-LBPA integrated intensity (sum per cell), Z-score; higher = more LBPA staining; details: compound concentration in added solution (µM; 5 µl added to 20 µl cells): 10; 18 h
Counter-ions that a name gives are not always drawn.
Hi, to clarify the labels: TRUE covers LBPA endosome anti-LBPA integrated intensity (z-score) from -0.5 upward, FALSE covers anything below -0.5.

{"Molecule": "O=C(O)CNC(=O)C(CS)Cc1ccccc1 (centres undefined)", "Study System": "A431", "Qualitative Label": "FALSE"}
{"Molecule": "OC(CCN1CCCC1)(c1ccccc1)C1CCCCC1 (centres undefined) [Procyclidine hydrochloride]", "Study System": "A431", "Qualitative Label": "TRUE"}
{"Molecule": "O=C1CN(/N=C/c2ccc([N+](=O)[O-])o2)C(=O)N1", "Study System": "A431", "Qualitative Label": "TRUE"}
{"Molecule": "CNC(C)CCC=C(C)C (centres undefined) [Isometheptene mucate]", "Study System": "A431", "Qualitative Label": "TRUE"}
{"Molecule": "C[C@]12C=CC(=O)C=C1CC[C@@H]1[C@@H]2C(=O)C[C@@]2(C)[C@H]1CC[C@]2(O)C(=O)CO", "Study System": "A431", "Qualitative Label": "TRUE"}
{"Molecule": "CC(=O)OCC(=O)[C@@]12OC(C)(C)O[C@@H]1C[C@H]1[C@@H]3C[C@H](F)C4=CC(=O)C=C[C@]4(C)[C@@]3(F)[C@@H](O)C[C@@]12C [Fluocinonide]", "Study System": "A431", "Qualitative Label": "TRUE"}
{"Molecule": "CCCC(CCC)C(=O)O", "Study System": "A431", "Qualitative Label": "TRUE"}
{"Molecule": "NS(=O)(=O)Cc1noc2ccccc12 [Zonisamide]", "Study System": "A431", "Qualitative Label": "TRUE"}
{"Molecule": "O=C(O)Cc1sc(-c2ccccc2)nc1-c1ccc(Cl)cc1", "Study System": "A431", "Qualitative Label": "FALSE"}

Provenance of the data: the supplement of paper PMC6607015
